The measurements presented in this section are drawn from ChEMBL document CHEMBL1201862.

test system: U-251; assay: NCI tumour cell line growth inhibition, 48 h
Active and inactive are the calls of the source. No stated cut-off is given here; in the data, active = GI50 up to about 1.1 µM and inactive = higher.
Here the recorded GI50 is given for each entry.

compound	GI50
CCn1cc(C(=O)O)c(=O)c2ccc(C)nc21	> 100 µM (inactive)
COc1cc(O)c2c(=O)c(OC)c(-c3ccc4c(c3)OCO4)oc2c1	9.27 µM (inactive)
C=C1COC(O)(C2OCOC(C3CC(=O)NC(=O)C3)C2O)C1C (stereo unspecified)	0.00341 µM (active)
Cc1cc(N(CCC#N)S(C)(=O)=O)ccc1C=O	> 100 µM (inactive)
O=C1Oc2ccccc2C(=O)/C1=C/N1C(=O)/C(=C/c2ccc3c(c2)OCO3)SC1=S	10 µM (inactive)

Now look at this entry.
The compound listed as COc1ccccc1C12OC(=O)C1(C)Oc1ccccc1C2=O (stereo unspecified) shows GI50 equal to > 100 µM (inactive)
